Each entry below carries its recorded growth inhibition.
# experimental.protocol: antimalarial activity against Dd2 strain (AID 2302);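 further: 0% = DMSO untreated growth and 100% = chloroquine plus artemisinin killed control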
# stated.conditions: P. falciparum Dd2 in RBCs, LDH growth readout, 72 h; at 2 µM; stronger effect = higher value
Just the number in %, nothing appended.

// known answers, use as guide
COc1ccccc1-c1[nH]c2ccccc2c1CN1CCC(c2c(C)cccc2C)CC1; 13
COc1ccc2nccc(N3CCC(O)(CCNCc4ccc5c(n4)NC(=O)CO5)CC3)c2n1; 24
COc1cc(C2=NN(S(=O)(=O)c3c(Cl)cc(Cl)cc3Cl)CCCC2)ccc1Cl; 97

### Prompt For the compound shown here, "FC(F)(F)c1ccc2nc(-c3ccc(-c4ccc(CN5CCN(c6cnccn6)CC5)cc4)cc3)[nH]c2c1" , give the reported growth inhibition.
### Response 50

### Prompt Input "O=C(COc1ccccc1)N(Cc1ccc(-c2ccc(CNC3Cc4ccccc4C3)cc2)cc1)C1CCNCC1"
### Response 8

### Prompt Next record, please: "CCCCc1ccc(C(=O)NC2CCN(C[C@H](O)c3ccnc4ccc(OC)cc34)CC2)cc1"
### Response 22

### Prompt How about "COc1cc(Cc2cnc(N)nc2N)cc(OCCCN2C(=O)c3ccccc3C2=O)c1OC" ?
### Response -3

### Prompt "CC1(C)N=C(N)N=C(N)N1OCc1cccc(Cl)c1Cl" , same question.
### Response 75

### Prompt # repeat for CC(=O)C1=NN(c2ccc(C)cc2)C(c2cccs2)N1c1ccccc1 (centres undefined)
### Response 64
